- Experimental Target: purified recombinant human IP6K2 kinase domain (Homo sapiens, UniProt Q9UHH9)
- Sequence (Q9UHH9 1-426): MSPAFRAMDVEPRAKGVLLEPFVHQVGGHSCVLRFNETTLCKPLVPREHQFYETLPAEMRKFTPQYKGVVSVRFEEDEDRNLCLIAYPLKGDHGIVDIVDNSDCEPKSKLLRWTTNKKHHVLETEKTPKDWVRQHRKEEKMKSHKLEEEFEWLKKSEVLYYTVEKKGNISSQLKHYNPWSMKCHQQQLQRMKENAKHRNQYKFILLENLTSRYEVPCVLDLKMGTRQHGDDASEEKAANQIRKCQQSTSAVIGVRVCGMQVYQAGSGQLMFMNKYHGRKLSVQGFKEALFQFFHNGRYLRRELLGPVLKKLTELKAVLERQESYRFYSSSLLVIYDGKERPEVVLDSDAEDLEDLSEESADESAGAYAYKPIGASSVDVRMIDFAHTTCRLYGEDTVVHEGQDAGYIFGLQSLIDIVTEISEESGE
- Assay: IP6K2 IC50 determination, malachite green Pi release assay
- Assay type: biochemical
- Test Context: Table S1; ratio of IC50 values
# cutoff 5 applies to IP6K2/IPMK; >= gives Satisfied, < gives Not satisfied

Compound	Label Class
Cc1cc(C)cc(-c2onc3ccc(-c4nnn[nH]4)cc23)c1 [Compound 4]	Not satisfied
FC(F)(F)c1ccc(-c2onc3ccc(-c4nnn[nH]4)cc23)cc1 [Compound 7]	Satisfied
Cc1cc(C)cc(-c2onc3ccc(/C=C/C(=O)O)cc23)c1 [Compound 1]	Satisfied
O=C(Nc1cccc(-c2onc3ccc(-c4nnn[nH]4)cc23)c1)C1CC1 [Compound 11]	Not satisfied
c1ccc(-c2onc3ccc(-c4nnn[nH]4)cc23)cc1 [Compound 6]	Not satisfied
c1cc(-c2onc3ccc(-c4nnn[nH]4)cc23)cc(C2CCN(C3CCC3)CC2)c1 [Compound 14]	Satisfied

Every entry's value here was drawn from paper PMC12362615.
